# subject of test: T1, hK1 (human tissue kallikrein 1), recombinant (human, UniProt P06870 25-262)
# T1 construct: Expressed in P. pastoris from KLK1 cDNA and purified; enzymatically active; also called KLK1; Recombinant (Pichia) Kallikrein
# test protocol: SPR
experimental readout: pKd
One number for each entry, as −log10 of the molar value.

Look over these answered cases.
{"columns": ["binder", "assay value"],
 "data": [
  ["M0131-A03 (Fab, V domains shown) VH: EVQLLESGGGLVQPGGSLRLSCAASGFTFSWYTMGWVRQAPGKGLEWVSVIYPSGGMTKYADSVKGRFTISRDNSKNTLYLQMNSLRAEDTAVYYCARTSGGTPWGFWGQGTLVTVSS VL: AQYELTQPASVSGSPGQSITISCTGTNTDVGGYNYVSWYQQYPGKAPKLMIYEVNHRPSGVSNRFSGSKSGNTASLTISGLQAEDEADYYCSSYTYRNTYVFGTGTKVTVLG", 7.76],
  ["M0114-F04 (Fab, V domains shown) VH: EVQLLESGGGLVQPGGSLRLSCAASGFTFSHYYMAWVRQAPGKGLEWVSYISPSGGSTKYADSVKGRFTISRDNSKNTLYLQMNSLRAEDTAMYYCARGGGTGTFDIWGQGTMVTVSS VL: AQSELTQPASVSGSPGQSIAISCTGTSSDIGAYPFVSWYQQHPGKAPKLLIYGVTTRPFGVSDRFSGSKSGSTASLTISGLQAEDEADYYCSSYAGGRNLPYVFGTGTTVTVLG", 7.51],
  ["M0098-E09 (Fab, V domains shown) VH: EVQLLESGGGLVQPGGSLRLSCAASGFTFSRYGMQWVRQAPGKGLEWVSYIYPSGGGTVYADSVKGRFTISRDNSKNTLYLQMNSLRAEDTAVYYCARRVAVAGSWYYYYYGMDVWGQGTTVTVSS VL: DIQMTQSPSSVSASVGDSVTISCWTIYDISSWLAWYQQRPGQAPKLLIYAASRLATGVPSRFRGSGSGTDFTLTITNLQPEDVATYYCQQTKDFPLTFGGGTRVDLKR", 8.72],
  ["M0117-A12 (Fab, V domains shown) VH: EVQLLESGGGLVQPGGSLRLSCAASGFTFSNYKMSWVRQAPGKGLEWVSGIYPSGGLTQYADSVKGRFTISRDNSKNTLYLQMNSLRAEDTAVYYCAKVGVWYGMDVWGQGTTVTVSS VL: DIQMTQSPGTLSLSPGDRATLSCRASQSVGSDYLAWYQQKPGQAPRLLIYGASSRATGIPDRFSGSGSGTDFTLTISRLEPEDFAVYYCQQYGSSLYTFGQGTKLEIKR", 7.85],
  ["M0098-C10 (Fab, V domains shown) VH: EVQLLESGGGLVQPGGSLRLSCAASGFTFSFYSMMWVRQAPGKGLEWVSGISSSGGTTKYADSVKGRFTISRDNSKNTLYLQMNSLRAEDTAVYYCARGGTNYDYVWGSYRSHYYYYGMDVWGQGTTVTVSS VL: DIQMTQSPSSLSASVGDRVTITCRASHNIYTSLNWLQQKPGKAPKLLIYGASTLENGVPSRFSGSASGTDFTLTISSLQPEDSATYYCQQSYTSVTFGQGTKLEIRR", 7.79]
]}

Provide pKd for all items below, preserving their order.
1. M0124-H10 (Fab, V domains shown) VH: EVQLLESGGGLVQPGGSLRLSCAASGFTFSNYFMNWVRQAPGKGLEWVSSIGSSGGYTRYADSVKGRFTISRDNSKNTLYLQMNSLRAEDTAVYYCARVGVWYGMDVWGQGTTVTVSS VL: DIQMTQSPATLSLSAGERATLSCRASQSVNIDVGWYQQKPGQAPRLLIYDASKRATGIPTRFSGSGSGTDFTLTIANLEPEDFAVYYCQQRARWLTFGGGTRLEIKR
2. M0097-E07 (Fab, V domains shown) VH: EVQLLESGGGLVQPGGSLRLSCAASGFTFSWYQMMWVRKAPGKGLEWVSYIRSSGGKTDYADSVKGRFTISRDNSKNTLYLQMNSLRAEDTAVYYCARVGVWYGMDVWGQGTTVTVSS VL: DIQMTQSPSSLSASVGDRVTITCRASQSISSYLSWFQQRPGKAPKLLIYSASNLQSGVPLRFSGSGSGTDFTLTISSLQPEDFATYYCQQIYRTPLTFGGGTKVEIKR
3. M0112-C12 (Fab, V domains shown) VH: EVQLLESGGGLVQPGGSLRLSCAASGFTFSRYMMYWVRQAPGKGLEWVSSIYPSGGKTLYADSVKGRFTISRDNSKNTLYLQMNSLRAEDTAVYYCARVGVWYGMDVWGQGTTVTVSS VL: DIQMTQSPGTLSLSPGERATLSCRASQSVSSSYLAWYQQKPGQAPRLLIYGASSRATGIPDRFSGSGSGTEFTLTISSLQSEDSAVYYCQQYNNWPPLTFGGGTKVEIKR
4. M0102-H02 (Fab, V domains shown) VH: EVQLLESGGGLVQPGGSLRLSCAASGFTFSMYRMFWVRQAPGKGLEWVSVIGPSGGQTAYADSVKGRFTISRDNSKNTLYLQMNSLRAEDTAVYYCARVGVWYGMDVWGQGTTVTVSS VL: DIQMTQSPATLSLSPGERAALSCRASQSVSNFLAWYQQKPGQAPRLLIYGASNRATDIPARFSGSGSGTDFTLTISSLEPEDFATYYCQQANSFPLTFGGGTKVEIKR
5. M0095-A11 (Fab, V domains shown) VH: EVQLLESGGGLVQPGGSLRLSCAASGFTFSPYMMGWVRQAPGKGLEWVSSIRSSGGATAYADSVKGRFTISRDNSKNTLYLQMNSLRAEDTATYYCARVGVWYGMDVWGQGTTVTVSS VL: DIQMTQSPATLSLSPGERATLSCRASQSVSSYLAWYQQKPGQAPRLLIYDASNRATGIPARFSGSGSGTDFTLTISSLEPEDFAVYYCQQRSNWPPYTFGQGTKLEIKR

*A*
1: 7.69; 2: 7.86; 3: 7.80; 4: 7.51; 5: 8.14

Provenance of the data: patent US7329737
